Tested on: rat's ventricle strip
Assay: antiarrhythmic effect, isolated rat ventricle strip test
Settings: Rattus norvegicus; concentration 1·10^-6 M; decrease; read-out: maximed frequency (- %), % variation versus basal value
Reported metric: inhibition at 1 µM (%)
Return type: number; implicit unit %.

Incoming: // inhibition at 1 µM lookup, key: COc1ccc(C=CC(=O)OC(CC(=O)[O-])C[N+](C)(C)C)cc1 (racemic)
Outgoing: 22.2

Incoming: Same again, this time with C[N+](C)(C)CC(CC(=O)[O-])OC(=O)C1CCCCC1 (racemic)
Outgoing: 22.1

Incoming: Could you do the same for C[N+](C)(C)CC(CC(=O)[O-])OC(=O)C=Cc1ccccc1 (racemic) , please?
Outgoing: 29.8

Incoming: Another compound to check: C[N+](C)(C)CC(CC(=O)[O-])OC(=O)Cc1ccc2ccccc2c1 (racemic)
Outgoing: 41.2

Incoming: Next up: C=C[C@H]1C[N@@]2CC[C@H]1C[C@@H]2[C@@H](O)c1ccnc2ccc(OC)cc12 [Quinidine, reference compound]
Outgoing: 72.5

Others:
Incoming: # get_value(readout='inhibition at 1 µM', item= C[N+](C)(C)C[C@@H](CC(=O)[O-])OC(=O)C=Cc1cccc(C(F)(F)F)c1 )
Outgoing: 32.7

Incoming: And what about the compound C[N+](C)(C)CC(CC(=O)[O-])OC(=O)C=Cc1ccc(Cl)cc1 (racemic) ?
Outgoing: 25.1

====

Tested on: rat's ventricle strip
Test: antiarrhythmic effect, isolated rat ventricle strip test
Details: Rattus norvegicus; concentration 1·10^-6 M; increase; read-out: rheobase (+ %), % variation versus basal value
Reported metric: activation at 1 µM
Answer as a quantity: numeral, then unit.

See these solved cases before continuing.
Incoming: Dear colleague, I am looking for the recorded activation at 1 µM of the following compound: C[N+](C)(C)C[C@@H](CC(=O)[O-])OC(=O)C=Cc1cccc(C(F)(F)F)c1 [l trifluoromethylcinnamoyl CAR]
Outgoing: 39.2%

Incoming: Same read-out for CC(C)Cc1ccc(CC(=O)OC(CC(=O)[O-])C[N+](C)(C)C)cc1 (racemic) [d,l p-isobutyl phenyl ACAR] ?
Outgoing: 22.2%

Incoming: Do the same for C[N+](C)(C)C[C@@H](CC(=O)[O-])OC(=O)CCBr [l 3-Br--propionyl CAR] please
Outgoing: 42.4%

Incoming: Also CC(C)(C)C(=O)O[C@H](CC(=O)[O-])C[N+](C)(C)C [l pivaloyl CAR] , if possible.
Outgoing: 35.1%

Incoming: Please do the same for C[N+](C)(C)CC(CC(=O)[O-])OC(=O)C1CCCCC1 (racemic) [d,l cyclohexyl CAR] as well.
Outgoing: 18.2%

Continuing:
Incoming: Requested field: activation at 1 µM. Item: C[N+](C)(C)CC(CC(=O)[O-])OC(=O)C=Cc1cccc(Br)c1 (racemic) [d,l m-bromocinnamoyl CAR]
Outgoing: 38.1%

====

Tested on: rat's ventricle strip
Test: antiarrhythmic effect, isolated rat ventricle strip test
Settings: Rattus norvegicus; concentration 1·10^-6 M; increase; read-out: rheobase (+ %), % variation versus basal value
# activation at 1 µM per record follows
Answer format: numeric, % implied, no suffix.

Answered examples (6):
Incoming: Which activation at 1 µM is listed for C[N+](C)(C)CC(CC(=O)[O-])OC(=O)C=Cc1ccccc1 (racemic) ?
Outgoing: 49.6

Incoming: // next record Cc1ccc(C=CC(=O)OC(CC(=O)[O-])C[N+](C)(C)C)cc1 (racemic)
Outgoing: 32.4

Incoming: Now consider C[N+](C)(C)CC(CC(=O)[O-])OC(=O)C=Cc1cccc(C(F)(F)F)c1 (racemic) .
Outgoing: 19.5

Incoming: Check C[N+](C)(C)CC(CC(=O)[O-])OC(=O)CCBr (racemic) too.
Outgoing: 26.1

Incoming: Moving on to the next molecule: CCC(CC)C(=O)OC(CC(=O)[O-])C[N+](C)(C)C (racemic)
Outgoing: 20.6

Incoming: Record: CCCC(CCC)C(=O)O[C@H](CC(=O)[O-])C[N+](C)(C)C
Outgoing: 55.1

Next:
Incoming: Entry C[N+](C)(C)CC(CC(=O)[O-])OC(=O)CCCCl (racemic) : reported activation at 1 µM = ?
Outgoing: 35.2

Incoming: Entry to check: CCCC(CCC)C(=O)O[C@@H](CC(=O)[O-])C[N+](C)(C)C
Outgoing: 21.7

====

// values below are reported LD50
Assay: acute toxicity (tolerance) i.p. in mice, Weil method
Settings: mouse, in vivo, ip, Weil method (N = 5, K = 4)
Return type: number; implicit unit mg/kg.

Worked cases, LD50 given:
Incoming: // LD50 lookup, key: C[N+](C)(C)CC(CC(=O)[O-])OC(=O)C=Cc1cccc(Br)c1 (racemic)
Outgoing: 650

Incoming: Same thing, different compound: C[N+](C)(C)CC(CC(=O)[O-])OC(=O)C=Cc1ccccc1 (racemic)
Outgoing: 1120

Incoming: What about C[N+](C)(C)CC(CC(=O)[O-])OC(=O)CCC1CCCCC1 (racemic) ?
Outgoing: 955

From here, focus on the item given below.
Incoming: Can you look up the measured LD50 of C[N+](C)(C)CC(CC(=O)[O-])OC(=O)C=Cc1ccc(Cl)cc1 (racemic) for me?
Outgoing: 935

====

Recorded inhibition at 1 µM, one value per entry.
System: rat's ventricle strip
Assay: antiarrhythmic effect, isolated rat ventricle strip test
Conditions: Rattus norvegicus; concentration 1·10^-6 M; decrease; read-out: maximed frequency (- %), % variation versus basal value
Dear colleague, please return just the value in %, with no unit written.

Incoming: Give its inhibition at 1 µM value. Item: CCCC(CCC)C(=O)O[C@@H](CC(=O)[O-])C[N+](C)(C)C
Outgoing: 22.4

Incoming: Try the compound CCCC(CCC)C(=O)O[C@H](CC(=O)[O-])C[N+](C)(C)C
Outgoing: 25.3

Incoming: What do you get for CC(C)(C)C(=O)O[C@H](CC(=O)[O-])C[N+](C)(C)C ?
Outgoing: 60.4

Incoming: Same question for C[N+](C)(C)CC(CC(=O)[O-])OC(=O)CCC1CCCCC1 (racemic) please.
Outgoing: 45.3

Incoming: # iterate: CCCC(CCC)C(=O)OC(CC(=O)[O-])C[N+](C)(C)C (racemic)
Outgoing: 23.2

Incoming: Same question for CC(C)Cc1ccc(CC(=O)OC(CC(=O)[O-])C[N+](C)(C)C)cc1 (racemic) please.
Outgoing: 38.2

---
Incoming: Any idea what inhibition at 1 µM was measured for CCCCC(CC)C(=O)OC(CC(=O)[O-])C[N+](C)(C)C (racemic) ?
Outgoing: 25.5

Incoming: Moving on to C[N+](C)(C)CC(CC(=O)[O-])OC(=O)CCBr (racemic)
Outgoing: 17.3

Incoming: Query Cc1ccc(C=CC(=O)OC(CC(=O)[O-])C[N+](C)(C)C)cc1 (racemic) next
Outgoing: 38.6

Incoming: Another compound: C[N+](C)(C)CC(CC(=O)[O-])OC(=O)C=Cc1cccc(Br)c1 (racemic)
Outgoing: 28.5

Incoming: Item: C[N+](C)(C)C[C@@H](CC(=O)[O-])OC(=O)CCBr
Outgoing: 50.5

Incoming: // next record CC(=O)C(=O)OC(CC(=O)[O-])C[N+](C)(C)C (racemic)
Outgoing: 80.2

====

Parameter: activation at 1 µM. Scope: all listed entries.
System: rat's ventricle strip
Assay: antiarrhythmic effect, isolated rat ventricle strip test
Details: Rattus norvegicus; concentration 1·10^-6 M; increase; read-out: rheobase (+ %), % variation versus basal value
Text: (2) M. Libonati and G. Segre, Archivio Italiano di Scienze Farmacologiche. Serie XIII, Vol. X, pag. 3, (1960) effect of some acyl derivatives (concentration 1 · 10^-6 of the formula (1) on the rat's ventricle strip test. % variation versus basal value.
API: value field is a number in %; no unit string.

// solved cases for activation at 1 µM follow
Incoming: May I ask what activation at 1 µM has been recorded for C[N+](C)(C)CC(CC(=O)[O-])OC(=O)CCC1CCCCC1 (racemic) ?
Outgoing: 22.4

Incoming: Record: C[N+](C)(C)CC(CC(=O)[O-])OC(=O)C=Cc1ccc(Cl)cc1 (racemic)
Outgoing: 20.4

Incoming: Likewise for C=C[C@H]1C[N@@]2CC[C@H]1C[C@@H]2[C@@H](O)c1ccnc2ccc(OC)cc12 [Quinidine, reference compound] ?
Outgoing: 51.2

Continuing:
Incoming: What activation at 1 µM value was documented for this compound, COc1ccc(C=CC(=O)OC(CC(=O)[O-])C[N+](C)(C)C)cc1 (racemic) ?
Outgoing: 22.2

Incoming: For CC(=O)C(=O)OC(CC(=O)[O-])C[N+](C)(C)C (racemic) then?
Outgoing: 48.2

Incoming: Ok, now C[N+](C)(C)CC(CC(=O)[O-])OC(=O)Cc1ccc2ccccc2c1 (racemic)
Outgoing: 41.2

Incoming: Likewise for CCCCC(CC)C(=O)OC(CC(=O)[O-])C[N+](C)(C)C (racemic) ?
Outgoing: 21.8

Incoming: Lookup CCCC(CCC)C(=O)OC(CC(=O)[O-])C[N+](C)(C)C (racemic)
Outgoing: 24.2

Incoming: Next compound up: CC(C)(C)C(=O)OC(CC(=O)[O-])C[N+](C)(C)C (racemic)
Outgoing: 40.2
